Source listed as patent US9056847B2.

# study system: GBA (Homo sapiens (Human), UniProt P04062, R534H)
# Sequence (P04062 40-536 R534H): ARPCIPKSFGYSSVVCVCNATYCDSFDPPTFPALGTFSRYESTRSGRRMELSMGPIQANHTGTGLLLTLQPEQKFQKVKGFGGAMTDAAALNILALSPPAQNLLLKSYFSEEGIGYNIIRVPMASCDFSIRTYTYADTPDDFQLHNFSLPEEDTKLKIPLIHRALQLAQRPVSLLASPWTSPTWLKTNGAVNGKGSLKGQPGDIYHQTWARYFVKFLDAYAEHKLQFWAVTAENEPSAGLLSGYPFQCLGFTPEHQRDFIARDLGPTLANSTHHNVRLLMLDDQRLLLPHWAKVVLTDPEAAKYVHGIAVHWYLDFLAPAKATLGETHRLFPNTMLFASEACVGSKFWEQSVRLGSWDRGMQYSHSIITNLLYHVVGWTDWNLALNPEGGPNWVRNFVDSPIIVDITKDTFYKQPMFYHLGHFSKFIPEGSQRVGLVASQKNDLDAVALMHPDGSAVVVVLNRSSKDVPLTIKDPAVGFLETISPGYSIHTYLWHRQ
# protocol notes: Continuous substrate release assay for inhibition constants
# particulars: equilibrium constant for initial binding, reported with s.e.m.
reported endpoint: Ki (nM)
Express your answer in nM, writing the number without its unit.

Problem: Which measured Ki belongs to `CC1=CC(C)=[N+]2C1=C(CCCCc1cn(C[C@@H]3[C@@H](O)[C@H](O)[C@@H](O)[C@@H]4O[C@H]34)nn1)c1c(C)cc(C)n1[B-]2(F)F` , tested on GBA (Homo sapiens (Human), UniProt P04062, R534H)?
Solution: 7

Problem: Entry `COc1ccc(C2=[N+]3C(=C(CCCCc4cn(C[C@@H]5[C@@H](O)[C@H](O)[C@@H](O)[C@@H]6O[C@H]56)nn4)c4ccc(-c5ccc(OC)cc5)n4[B-]3(F)F)C=C2)cc1` , system GBA (Homo sapiens (Human), UniProt P04062, R534H): what Ki was measured?
Solution: 8

Problem: Query Ki on GBA (Homo sapiens (Human), UniProt P04062, R534H) for `[N-]=[N+]=NC[C@@H]1[C@@H](O)[C@H](O)[C@@H](O)[C@@H]2O[C@H]12`
Solution: 44

Problem: Hi! What's the reported Ki for O[C@H]1[C@H](O)[C@@H](O)[C@@H]2O[C@@H]2[C@@H]1O [CBE, Conduritol B-epoxide, reference compound] on GBA (Homo sapiens (Human), UniProt P04062, R534H)?
Solution: 53000

Problem: Find Ki (GBA (Homo sapiens (Human), UniProt P04062, R534H)) for the entry OC[C@@H]1[C@@H](O)[C@H](O)[C@@H](O)[C@@H]2O[C@H]12 [Cyclophellitol 3, cyclophellitol, reference compound]
Solution: 152
